- Test system: LXFL 529 NSCLC
- experimental-details: NCI tumour cell line growth inhibition, 48 h
property: TGI

molecule=Nc1ncnc2c1ncn2COC/C=C/I property=TGI measurement="> 100 µM"

Data request: Complete the entry with TGI for COC1=CC(=O)C2C(C1=O)[C@@H]1c3ccccc3OC[C@H]21 (stereo not given in full)
Data returned: > 100 µM

Data request: Given Cc1nc2c(s/c(=N\N)n2-c2ccccc2)c(=O)n1C , respond with its TGI.
Data returned: > 100 µM

Data request: Specify TGI for O=c1cc(-c2cccc(Br)c2)[nH]c2cc3c(cc12)OCO3 and stop.
Data returned: 18.6 µM

Data request: Supply reported TGI belonging to this molecule: Cc1ccc(SSCCCCS(=O)O)cc1
Data returned: 25.5 µM

Data request: Note TGI for the molecule shown: CC1CCC2[C@@H](C)COC3O[C@]4(C)CCC1C32OO4 (stereo not given in full)
Data returned: > 100 µM

Data request: Provide measured TGI value, entry: CC1=C(C(=O)NCc2ccccc2)C(c2ccccc2O)C(C(=O)NCc2ccccc2)=C(C)N1
Data returned: 28.7 µM

Data request: Indicate the recorded TGI value for this molecule: NC(C(=O)O)c1ccc(C(=O)O)cc1 (stereo not given)
Data returned: > 100 µM

Data request: Please supply the value of reported TGI for the item CCc1cccc(CC)c1NC(=O)C1=CNC(C)=C(C(=O)Nc2c(CC)cccc2CC)C1c1ccc(O)c(OC)c1 (stereo not given)
Data returned: > 100 µM

Data request: Return TGI (reported value) for this molecule: ClCCCN1CCCCC1CCl (stereo not given)
Data returned: > 100 µM

Data request: Let me know recorded TGI for CC(=O)N1CCN(C=S)CC1 , thanks.
Data returned: > 100 µM

Data request: Output TGI of COc1ccc(S(=O)(=O)N/N=C/CN2C(=O)c3ccccc3C2=O)cc1
Data returned: > 100 µM

Data request: Query TGI for CCOC(=O)C1C(=O)c2cccc(OC)c2C2COC(=O)N12 (stereo not given)
Data returned: > 100 µM

Data request: Name the recorded TGI of the item Nc1nc2c(ncn2CC(CO)CC(c2ccccc2)P(=O)(O)O)c(=O)[nH]1 (stereo not given) in your answer.
Data returned: > 100 µM

Data request: For the molecule C(=NCCN=Cc1cccc2ccccc12)c1cccc2ccccc12 , give its reported TGI.
Data returned: > 100 µM

Data request: Query TGI for N#CC12CC3(CCC1CCC1(C2)OCCO1)OCCO3 (stereo not given)
Data returned: > 100 µM

Data request: Entry O=c1[nH]c(Br)nc2c(N3CCCCC3)c[nH]c12 needs its TGI filled in; supply it.
Data returned: > 100 µM

Data request: Report measured TGI; entry is O=C1OC(=O)C2C1C1C(c3ccccc3)=C(c3ccccc3)C2(O)C2C(=O)OC(=O)C12 (stereo not given)
Data returned: > 100 µM

Data request: Output measured TGI for this item: COC(=O)C(Cc1ccccc1)N=Cc1c(O)c(O)c(C(C)C)c2cc(C)c(-c3c(C)cc4c(C(C)C)c(O)c(O)c(C=NC(Cc5ccccc5)C(=O)OC)c4c3O)c(O)c12 (stereo not given)
Data returned: 38.5 µM

Data request: Report measured TGI; entry is Cc1ccc(NC(=O)CC2C(=O)Nc3ccccc3S2(=O)=O)cc1C (stereo not given)
Data returned: > 100 µM
